Values were extracted from paper PMC6271338.

system: SW1990 cells; experiment: In vitro anti-proliferative SRB assay, SW1990; format: cell-based, human; conditions: selectivity index, L02 vs SW1990
Endpoint label: SI (CC50 L02/IC50 SW1990)
# output: bare number, no unit

Some compounds with recorded SI (CC50 L02/IC50 SW1990):
Item `COc1cccc(OC)c1/C=C/C(=O)c1ccc(-c2ccccc2)cc1` was tested on SW1990 cells; the reported SI (CC50 L02/IC50 SW1990) is 11.7

Item `CCOc1ccc(C(=O)/C=C/c2c(OC)cccc2OC)cc1` was tested on SW1990 cells; the reported SI (CC50 L02/IC50 SW1990) is 1.9

Item `COc1cccc(OC)c1/C=C/C(=O)c1ccc2c(c1)OCO2` was tested on SW1990 cells; the reported SI (CC50 L02/IC50 SW1990) is 2.4

Others:
Item `CCOc1cc(OC)ccc1C(=O)/C=C/c1c(OC)cccc1OC` was tested on SW1990 cells; the reported SI (CC50 L02/IC50 SW1990) is 1.0
